Value source: patent US20100260765A1

Could you please report measured % Inhibition of VEGF165-mediated pTyr Activity, n = 2 for the items listed next?
- measured-target: human KDR (VEGFR2) on cells (human, UniProt P35968 20-1356); further: test concentration or dose not given here
- Sequence (P35968 20-1356): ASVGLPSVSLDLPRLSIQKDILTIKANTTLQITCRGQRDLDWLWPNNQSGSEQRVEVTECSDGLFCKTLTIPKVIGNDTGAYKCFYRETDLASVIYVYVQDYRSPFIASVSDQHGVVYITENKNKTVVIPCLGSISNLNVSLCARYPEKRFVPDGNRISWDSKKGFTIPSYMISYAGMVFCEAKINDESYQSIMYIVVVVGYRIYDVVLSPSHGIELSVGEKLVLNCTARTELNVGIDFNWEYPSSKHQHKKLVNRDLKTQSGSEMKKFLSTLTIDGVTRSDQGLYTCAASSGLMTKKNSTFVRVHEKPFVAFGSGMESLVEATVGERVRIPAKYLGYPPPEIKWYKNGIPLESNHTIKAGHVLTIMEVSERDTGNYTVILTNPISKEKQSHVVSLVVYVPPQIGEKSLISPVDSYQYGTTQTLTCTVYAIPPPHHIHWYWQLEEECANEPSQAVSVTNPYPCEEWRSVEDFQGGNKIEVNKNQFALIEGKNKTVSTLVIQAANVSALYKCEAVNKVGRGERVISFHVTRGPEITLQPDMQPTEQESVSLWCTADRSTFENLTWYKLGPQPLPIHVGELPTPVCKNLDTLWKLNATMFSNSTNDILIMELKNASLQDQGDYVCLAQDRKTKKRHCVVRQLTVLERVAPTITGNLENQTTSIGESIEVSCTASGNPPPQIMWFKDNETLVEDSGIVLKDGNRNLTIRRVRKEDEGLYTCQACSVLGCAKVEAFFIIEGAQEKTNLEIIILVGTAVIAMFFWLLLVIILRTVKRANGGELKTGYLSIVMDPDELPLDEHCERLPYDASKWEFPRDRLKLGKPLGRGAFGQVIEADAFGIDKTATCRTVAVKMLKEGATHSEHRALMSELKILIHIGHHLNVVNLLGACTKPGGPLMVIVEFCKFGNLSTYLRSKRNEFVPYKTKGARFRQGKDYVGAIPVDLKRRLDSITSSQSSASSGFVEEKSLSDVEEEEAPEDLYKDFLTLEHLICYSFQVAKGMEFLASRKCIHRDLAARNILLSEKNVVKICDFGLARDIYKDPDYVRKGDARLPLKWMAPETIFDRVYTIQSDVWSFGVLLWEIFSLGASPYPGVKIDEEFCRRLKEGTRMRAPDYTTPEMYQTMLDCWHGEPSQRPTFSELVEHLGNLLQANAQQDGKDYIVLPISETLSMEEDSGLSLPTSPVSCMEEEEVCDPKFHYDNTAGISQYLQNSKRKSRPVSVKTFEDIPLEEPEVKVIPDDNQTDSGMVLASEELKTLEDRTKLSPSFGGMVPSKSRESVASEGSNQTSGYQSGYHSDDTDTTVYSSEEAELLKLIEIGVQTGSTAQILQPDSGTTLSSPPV
- procedure-text: cell-based or functional assay
One number for each entry, in %.

Guide cases for % Inhibition of VEGF165-mediated pTyr Activity, n = 2, answers given:
anti-KDR monoclonal antibody 30D7 (antibody, V domains shown, Fully human mAb from XenoMouse (IgG2 or IgG4 strain); hybridoma supernatant) VH: QVPLVESGGGVVQPGRSLRLSCAASGFTFSSYGMHWVRQAPGKGLEWVAVIWYDGSNKYYADSVKGRFTISRDNSKNTLYLQMNSLRAEDTAVYYCARGVTMVRGVIIARYYYGLDVWGQGTTVTVSS VL: DIVMTQTPLSSPVTLGQPASISCRSSQSLVHSDGNTYLSWLQQRPGQPPRLLIYKISNRFFGVPDRFSGSGAGTDFTLKIGRVEAEDVGLYYCMQSTQFPLTFGGGTKVEIK | 71
anti-KDR monoclonal antibody 31E11 (antibody, V domains shown, Fully human mAb from XenoMouse (IgG2 or IgG4 strain); hybridoma supernatant) VH: QVQLVESGGGLVKPGGSLRLSCAASGFTFSDYYMSWIRQAPGKGLEWVSYISISGSTIYYADSVKGRFTISRDNAKNSLYLQMNSLRAEDTAVYYCARDDFWSGYYFNWFDPWGQGTLVTVSS VL: DIQMTQSPSSLSASVGDRVTITCRANQTISTFLNWYQQNPGKAPKLLIYAASSLQSGVPSRFSGSGSGTDFTLTISSLQPEDFATYYCQQTYIIPLTFGGGTKVEIK | 80

Kindly consider the entry below.
Data request: Give % Inhibition of VEGF165-mediated pTyr Activity, n = 2 for anti-KDR monoclonal antibody 21H6 (antibody, V domains shown, Fully human mAb from XenoMouse; hybridoma supernatant) VH: QVQLVESGGGLVKPGGSLRLSCAASGFTFSDYYMSWIRQAPGKGLEWVSYISNSGITIYYADSVKGRFTISRDNAKNSLYLQMNSLRAGDTAVYYCAREEWYSSRWYRNFDYWGQGTLVTVSS VL: DIQMTQFSSSLSASVGDRVTITCRASQSISRYLNWYQQKPGKAPKLLIYAASSLQSGVPSRFNGSGSGTDFTLTISSLQPEDFATYYCQQSYSAPLTFGGGTKVEIK
Data returned: 65
